Cited source: patent US20110091971A1

Test system: H1 or H9 human embryonic stem cells
Assay: Activin A bioassay: differentiation of human embryonic stem cells to definitive endoderm, cell number and SOX17 intensity by high content analysis (96-well, four days);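 further: total fluorescence of the cell multiplied by cell area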
Format: cell-based
Conditions: supernatant concentration 1x, assay dilution 1:20
Listed molecules paired with reported Sox 17 Intensity average

{"molecule": "ACTN22: activin A variant peptide, SEQ ID 23 (protein) GLECDGKVNLCCKKQDFVSFKDIGWNDWIIAPSGYHANRCDGLCPSHIAGTSGSSLSFHSTVINHYRMRGHSPFALMGACCIPTKLRPMSMLYYDDGQNIIKKDIQNMIVEECGCS", "Sox 17 Intensity average": "1.32E+05"}
{"molecule": "ACTN7: activin A variant peptide, SEQ ID 8 (protein) GLECDGKVNYCCKKQHFVSFKDIGWNDWIIAPSGYHANSCSGLCPSHIAGTSGSSLSFHSTVINHYRMRGHSPFSQMGSCCIPTKLRPMSMLYYDDGQNIIKKDIQNMIVEECGCS", "Sox 17 Intensity average": "1.108E+07"}
{"molecule": "ACTN84: activin A variant peptide, SEQ ID 85 (protein) GLECDGKVNICCKKQSFGQAKDIGWNDWIIAPSGYHGGGCSGECPSHIAGTSGSSLSFHSTVINHYRMRGHSPFANLKSCCSPTKLRPMSMLYYDDGQNIIKKDIQNMVVEECGCT", "Sox 17 Intensity average": "3.37E+05"}
{"molecule": "ACTN18: activin A variant peptide, SEQ ID 19 (protein) GLECDGKVNYCCKKQNFVSFKDIGWNDWIIAPSGYHANKCSGKCPSHIAGTSGSSLSFHSTVINHYRMRGHSPFSDMGACCIPTKLRPMSMLYYDDGQNIIKKDIQNMIVEECGCS", "Sox 17 Intensity average": "5.68E+05"}
{"molecule": "ACTN19: activin A variant peptide, SEQ ID 20 (protein) GLECDGKVNLCCKKQDFVSFKDIGWNDWIIAPSGYHANKCGGKCPSHIAGTSGSSLSFHSTVINHYRMRGHSPFANMGSCCIPTKLRPMSMLYYDDGQNIIKKDIQNMIVEECGCS", "Sox 17 Intensity average": "4.09E+04"}
{"molecule": "ACTN52: activin A variant peptide, SEQ ID 53 (protein) GLECDGKVNICCKKQLFGKTKDIGWNDWIIAPSGYHGGSCTGECPSHIAGTSGSSLSFHSTVINHYRMRGHSPNANLKSCCSPTKLRPMSMLYYDDGQNIIKKDIQGMKVEECGCT", "Sox 17 Intensity average": "1.17E+05"}
{"molecule": "ACTN45: activin A variant peptide, SEQ ID 46 (protein) GLECDGKVNTCCKKQNFVSFKDIGWNDWIIAPSGYHANECSGKCPSHIAGTSGSSLSFHSTVINHYRMRGHSPFANMGACCIPTKLRPMSMLYYDDGQNIIKKDIQNMIVEECGCS", "Sox 17 Intensity average": "1.48E+05"}
